Test system: S. aureus RN4220
Test: growth inhibition call (relative growth <= 0.2)
Details: 50 µM
The campaign covered roughly 39,000 compounds. About 500 (1.3%) were called active. For the sample, actives were picked, then their nearest neighbours and some compounds at random.
Assign a class; possible classes are class 1 for active, class 0 for inactive

| COMPOUND | LABEL CLASS |
| --- | --- |
| C[C@@H]1CN([C@H](C)CO)C(=O)c2cc(NC(=O)Nc3ccc4c(c3)OCO4)ccc2O[C@@H](C)CCCCO[C@@H]1CN(C)C(=O)c1ccccc1 | class 0 |
| CC(=O)OC[C@H]1O[C@H](n2ccc(=O)[nH]c2=O)[C@@H](OC(C)=O)[C@@H]1OC(C)=O | class 0 |
| COc1ccc(NC(=O)Nc2ccc3c(c2)C(=O)N([C@@H](C)CO)C[C@@H](C)[C@H](CN(C)Cc2ccc(C(=O)O)cc2)OCCCC[C@H](C)O3)cc1 | class 0 |

Enquiry: Can you look up the reported call for C[C@@H]1CN([C@@H](C)CO)C(=O)c2cc(C#Cc3ccncc3)cnc2O[C@H]1CN(C)S(=O)(=O)c1ccccc1F for me?
Return: class 0

Enquiry: Do the same for CC1(C)SC2C(NC(=O)COc3ccccc3)C(=O)N2C1C(=O)[O-].[K+] (stereo unspecified) please
Return: class 1

Enquiry: Do the same for CC1(C)SC2C(NC(=O)Cc3ccccc3)C(=O)N2C1C(=O)[O-].[K+] (stereo unspecified) please
Return: class 1

Enquiry: Do the same for CS(=O)(=O)CCOC(=O)C1=CC(CCCO)=C[C@@H](c2ccc(CN3CCCC3)cc2)N(Cc2sc3ccccc3c2Cl)C=C1C(=O)OCCS(C)(=O)=O please
Return: class 1

Enquiry: Do the same for C[C@H](CO)N1C[C@H](C)[C@H](CN(C)Cc2ccc(C(F)(F)F)cc2)Oc2ccc(NS(=O)(=O)c3ccc(Cl)cc3)cc2C1=O please
Return: class 0

Enquiry: Do the same for COc1cccc(NC(=O)N[C@H]2C=C[C@@H](CC(=O)N3CCN(C)CC3)O[C@@H]2CO)c1 please
Return: class 0

Enquiry: Do the same for COc1ccc(COC[C@]23N=C4SCc5ccccc5CN4[C@H](c4ccccc4O2)[C@H]3COC(=O)NCCCCCC(=O)NO)cc1 please
Return: class 0

Enquiry: Do the same for NC(=O)N/N=C/c1ccc([N+](=O)[O-])o1 please
Return: class 1

Enquiry: Do the same for COC(=O)N/N=C/c1ccc([N+](=O)[O-])o1 please
Return: class 0

Enquiry: Do the same for Cc1ccc(S(=O)(=O)Nc2cccc3c2O[C@H](CN(C)S(=O)(=O)c2ccc(F)cc2)[C@@H](C)CN([C@H](C)CO)C3=O)cc1 please
Return: class 0

Enquiry: Do the same for O=C(NN=Cc1ccc([N+](=O)[O-])o1)c1ccc(O)cc1 please
Return: class 0

Enquiry: Do the same for Cc1ncc[nH]1 please
Return: class 0

Value source: the antibiotic and cytotoxicity screens of Wong et al. (2023)
